System: diabetic mice (KK-Ay)
test.name: Evaluation of Serum Glucose of Diabetic Mice
Assay type: in vivo
settings: Mus musculus, 96 h; KK-Ay male mice, oral in diet, 4 days; read-out: Serum glucose ED50 (dose corresponding to a -50% change)
What ED50 was measured for each of the following?
Kindly provide the numeric value in mg/kg only, without the unit symbol.

Exercise: Would you kindly share the measured ED50 for COC(=O)C(Cc1ccc(OCCc2nc(-c3ccccc3)oc2C)cc1)C(=O)OC [Reference Example 1] ?
Key: 0.17

Exercise: Would you kindly share the measured ED50 for CCc1ccc(CCOc2ccc(CC3SC(=O)NC3=O)cc2)nc1 (stereo not shown) [Control compound, reference compound] ?
Key: 10.6

Exercise: Would you kindly share the measured ED50 for COC(=O)C(Cc1ccc(OCCc2nc(-c3ccccc3)oc2C)cc1)C(=O)O (stereo not shown) [Example 1] ?
Key: 0.12

Exercise: Would you kindly share the measured ED50 for Cc1oc(-c2ccccc2)nc1CCOc1ccc(CC(C(=O)O)C(=O)O)cc1 [Example 5] ?
Key: 2.7
